Active and inactive are the calls of the source.
This section lists AC50 readings for UniProtKB P11712.
Sequence (P11712 whole entry): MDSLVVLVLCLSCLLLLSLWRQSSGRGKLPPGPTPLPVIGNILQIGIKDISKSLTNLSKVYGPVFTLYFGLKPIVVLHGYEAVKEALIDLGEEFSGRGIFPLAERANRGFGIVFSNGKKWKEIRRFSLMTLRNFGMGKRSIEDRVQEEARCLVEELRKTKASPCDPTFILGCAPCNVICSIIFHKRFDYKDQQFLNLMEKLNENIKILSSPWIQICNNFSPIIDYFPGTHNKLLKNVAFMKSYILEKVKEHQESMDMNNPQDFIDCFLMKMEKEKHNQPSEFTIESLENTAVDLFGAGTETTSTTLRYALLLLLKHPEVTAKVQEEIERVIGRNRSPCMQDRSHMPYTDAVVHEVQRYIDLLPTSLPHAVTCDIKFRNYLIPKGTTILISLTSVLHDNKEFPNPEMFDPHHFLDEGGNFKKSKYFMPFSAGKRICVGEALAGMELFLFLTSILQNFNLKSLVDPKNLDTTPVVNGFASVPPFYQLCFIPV

In [3]: df
Out[3]:
                                   molecule             value_observed
0          S=C(NCc1ccco1)N1CCN(Cc2ccco2)CC1     14.1 µM (inconclusive)
1         CCNS(=O)(=O)c1ccc(NS(C)(=O)=O)cc1     7.94 µM (inconclusive)
2    COc1ccc(CCNC(=O)COC(=O)c2cnc(C)cn2)cc1  0.00562 µM (inconclusive)
3  COCCn1c(=O)c(-c2ccc(F)cc2)nc2cnc(N(C)C)nc21     12.6 µM (inconclusive)
4  COc1ccc(/C=C(\NC(=O)c2ccccc2)C(=O)N/N=C/c2ccncc2)cc1           12.6 µM (active)
5  Cc1sc(NC(=O)c2ccco2)c(C(c2cccnc2)N2CCN(C)CC2)c1C (stereo unspecified)     2.82 µM (inconclusive)
6  C=CCN=C(S)N1CCN(c2ncc3c(=O)c(C(=O)O)cn(CC)c3n2)CC1    0.224 µM (inconclusive)
7  COc1ccc(Cc2nnc(NC(=O)Cn3cnc4c3c(=O)n(C)c(=O)n4C)s2)cc1OC       20 µM (inconclusive)
8          COc1ccc(N=C(S)Nc2ncccc2C)c(OC)c1       20 µM (inconclusive)
9  CC1CCN(CC(=O)Nc2cccc([N+](=O)[O-])c2)CC1     15.8 µM (inconclusive)

Would you kindly look at the next entry?
q: Please give measured AC50 of the following entry: Nc1cc(-c2ccncc2)c[nH]c1=O [INAMRINONE]
a: 12.6 µM (inconclusive)

Origin of values: ChEMBL document CHEMBL1201862
